Target: mouse ADAMTS7 (Mus musculus)
Construct: Full-length mouse Adamts7 1-1857 (Uniprot Q68SA9, WT or E373Q catalytic mutant); expressed in transfected cells; host or cells: Human Coronary Artery Smooth Muscle Cells (HCA-SMC, Lonza), adenovirus 50 MOI
Sequence (Q68SA9 221-1657): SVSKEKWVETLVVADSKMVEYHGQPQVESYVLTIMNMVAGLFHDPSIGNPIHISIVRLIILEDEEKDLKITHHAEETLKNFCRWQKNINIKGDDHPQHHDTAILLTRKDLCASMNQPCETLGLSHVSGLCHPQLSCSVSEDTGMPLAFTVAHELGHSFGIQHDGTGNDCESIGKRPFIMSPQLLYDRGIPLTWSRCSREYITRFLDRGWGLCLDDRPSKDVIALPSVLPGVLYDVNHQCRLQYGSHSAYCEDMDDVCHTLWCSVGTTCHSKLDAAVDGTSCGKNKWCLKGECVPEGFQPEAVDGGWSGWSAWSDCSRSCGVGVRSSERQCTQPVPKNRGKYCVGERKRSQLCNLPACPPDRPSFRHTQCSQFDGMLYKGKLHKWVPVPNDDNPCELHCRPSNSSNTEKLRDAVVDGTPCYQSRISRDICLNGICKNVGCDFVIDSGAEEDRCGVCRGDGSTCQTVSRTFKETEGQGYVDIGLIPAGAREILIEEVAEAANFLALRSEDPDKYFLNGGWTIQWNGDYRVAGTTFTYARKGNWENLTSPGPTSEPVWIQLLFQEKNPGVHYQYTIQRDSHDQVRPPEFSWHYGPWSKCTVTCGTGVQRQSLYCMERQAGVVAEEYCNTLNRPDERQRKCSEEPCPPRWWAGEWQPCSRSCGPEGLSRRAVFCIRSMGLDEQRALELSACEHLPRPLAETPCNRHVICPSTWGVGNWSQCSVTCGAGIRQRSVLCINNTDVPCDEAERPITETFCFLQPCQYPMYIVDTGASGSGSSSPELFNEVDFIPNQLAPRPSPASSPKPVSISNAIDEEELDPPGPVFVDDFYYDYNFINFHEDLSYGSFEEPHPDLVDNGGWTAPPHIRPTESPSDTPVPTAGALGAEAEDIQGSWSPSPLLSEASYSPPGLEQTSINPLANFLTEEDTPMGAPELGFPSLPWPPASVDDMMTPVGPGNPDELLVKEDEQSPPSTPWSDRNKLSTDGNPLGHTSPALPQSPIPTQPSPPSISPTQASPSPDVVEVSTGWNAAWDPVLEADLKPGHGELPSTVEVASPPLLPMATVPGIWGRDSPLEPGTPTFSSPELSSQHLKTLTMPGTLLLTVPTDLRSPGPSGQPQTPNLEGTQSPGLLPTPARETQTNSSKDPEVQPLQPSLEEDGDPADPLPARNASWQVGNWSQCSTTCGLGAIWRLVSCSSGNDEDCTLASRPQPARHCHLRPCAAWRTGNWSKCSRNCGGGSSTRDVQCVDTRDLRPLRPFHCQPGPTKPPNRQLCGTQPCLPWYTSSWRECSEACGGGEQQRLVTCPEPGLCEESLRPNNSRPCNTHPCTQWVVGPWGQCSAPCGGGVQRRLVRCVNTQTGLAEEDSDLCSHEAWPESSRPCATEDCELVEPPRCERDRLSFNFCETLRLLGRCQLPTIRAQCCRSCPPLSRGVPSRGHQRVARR
Assay: TMT10 TAILS N-terminomics, SMC2 experiment (process replicates, trypsin/AspN digest)
Assay type: cell-based
Settings: SMC2_TAILS HC; log fold change, mWT over Luc

[
  {
    "substance": "COL1A2_270 (VGNAGPAGPAGPR; listed as Homo sapiens)",
    "logFC.mWT.over.Luc": 3.42
  },
  {
    "substance": "FLNA_689 (VNKPAEFTV; listed as Homo sapiens)",
    "logFC.mWT.over.Luc": 4.67
  },
  {
    "substance": "LOX_58 (LSLGSQYQPQR; listed as Homo sapiens)",
    "logFC.mWT.over.Luc": 1.68
  },
  {
    "substance": "FN1_99 (DKYTGNTYR; listed as Homo sapiens)",
    "logFC.mWT.over.Luc": 1.35
  },
  {
    "substance": "IGFBP3_31 (SAGLGPVVR; listed as Homo sapiens)",
    "logFC.mWT.over.Luc": 2.12
  },
  {
    "substance": "FSTL_1290 (LQKHQETA; listed as Homo sapiens)",
    "logFC.mWT.over.Luc": 2.58
  },
  {
    "substance": "FN1_2113 (FVTHPGY; listed as Homo sapiens)",
    "logFC.mWT.over.Luc": 1.38
  },
  {
    "substance": "FBLN2_259 (ALGPPAPVQAKAR; listed as Homo sapiens)",
    "logFC.mWT.over.Luc": 1.61
  },
  {
    "substance": "EEF1G_23 (QYSGAQVR; listed as Homo sapiens)",
    "logFC.mWT.over.Luc": 3.18
  },
  {
    "substance": "LOX_124 (WFQAGYSTSR; listed as Homo sapiens)",
    "logFC.mWT.over.Luc": 3.35
  },
  {
    "substance": "COL4A2_71 (YNGPPGLQGFPGLQGR; listed as Homo sapiens)",
    "logFC.mWT.over.Luc": 1.38
  },
  {
    "substance": "FOXG1_235 (LNKCFVKVPRHY; listed as Homo sapiens)",
    "logFC.mWT.over.Luc": 3.42
  },
  {
    "substance": "ACTN4_5 (HAANQSYQYGPSSAGNGAGGGGSMG; listed as Homo sapiens)",
    "logFC.mWT.over.Luc": 2.65
  },
  {
    "substance": "DIS3L_75 (FPELKGIIFMQTACQAVQHQR; listed as Homo sapiens)",
    "logFC.mWT.over.Luc": 1.77
  },
  {
    "substance": "COL1A2_960 (AGAPGPHGPVGPAGKHGNR; listed as Homo sapiens)",
    "logFC.mWT.over.Luc": 2.71
  },
  {
    "substance": "ECM1_44 (AAPPSPPLSR; listed as Homo sapiens)",
    "logFC.mWT.over.Luc": 2.25
  },
  {
    "substance": "FN1_40 (QSPVAVSQSKPGCYDNGKHYQINQQWER; listed as Homo sapiens)",
    "logFC.mWT.over.Luc": 2.60
  },
  {
    "substance": "FN1_607 (SSSGPVEVFIT; listed as Homo sapiens)",
    "logFC.mWT.over.Luc": 1.08
  },
  {
    "substance": "GSN_413 (HIANVER; listed as Homo sapiens)",
    "logFC.mWT.over.Luc": 1.91
  },
  {
    "substance": "KRT28_2 (SLQFSNGSR; listed as Homo sapiens)",
    "logFC.mWT.over.Luc": 1.88
  },
  {
    "substance": "DBN1_434 (APVEPATA; listed as Homo sapiens)",
    "logFC.mWT.over.Luc": 1.61
  },
  {
    "substance": "ADAM10_86 (FKVETSNKVL; listed as Homo sapiens)",
    "logFC.mWT.over.Luc": 2.45
  },
  {
    "substance": "CAP1_300 (FSAPKPQTSPSPKR; listed as Homo sapiens)",
    "logFC.mWT.over.Luc": 2.91
  },
  {
    "substance": "EIF4B_426 (QTGTSTTSSR; listed as Homo sapiens)",
    "logFC.mWT.over.Luc": 5.61
  },
  {
    "substance": "COL1A2_1028 (LQGLPGIAGHHGDQGAPGSVGPAGPR; listed as Homo sapiens)",
    "logFC.mWT.over.Luc": 1.73
  },
  {
    "substance": "LOX_123 (HWFQAGYSTSR; listed as Homo sapiens)",
    "logFC.mWT.over.Luc": 1.37
  },
  {
    "substance": "AMER2_654 (LAGTTIRATACH; listed as Homo sapiens)",
    "logFC.mWT.over.Luc": 0.95
  },
  {
    "substance": "FN1_1656 (SSSPVTGYR; listed as Homo sapiens)",
    "logFC.mWT.over.Luc": 1.20
  },
  {
    "substance": "FBLN2_665 (FSQVASNTIPLPLPQPNTCK; listed as Homo sapiens)",
    "logFC.mWT.over.Luc": 1.74
  },
  {
    "substance": "AEBP1_37 (FLEGFLSELEPEPR; listed as Homo sapiens)",
    "logFC.mWT.over.Luc": 3.21
  },
  {
    "substance": "EMSY_943 (QTVVQVLAVK; listed as Homo sapiens)",
    "logFC.mWT.over.Luc": 1.13
  },
  {
    "substance": "CCL2_28 (INAPVTCCYNFTNR; listed as Homo sapiens)",
    "logFC.mWT.over.Luc": 1.35
  },
  {
    "substance": "FBN1_29 (LEAGNVKETR; listed as Homo sapiens)",
    "logFC.mWT.over.Luc": 3.33
  },
  {
    "substance": "LOX_126 (QAGYSTSR; listed as Homo sapiens)",
    "logFC.mWT.over.Luc": 2.77
  },
  {
    "substance": "EFEMP1_124 (AVAGPEMQTGR; listed as Homo sapiens)",
    "logFC.mWT.over.Luc": 2.81
  },
  {
    "substance": "HSPG2_2333 (LAYPAGSTQPIR; listed as Homo sapiens)",
    "logFC.mWT.over.Luc": 1.19
  },
  {
    "substance": "FLNA_1285 (LTQTGGPHVKAR; listed as Homo sapiens)",
    "logFC.mWT.over.Luc": 4.37
  },
  {
    "substance": "FBN1_53 (LKGPNVCGSR; listed as Homo sapiens)",
    "logFC.mWT.over.Luc": 4.64
  },
  {
    "substance": "ADAM9_74 (GKEHIIHLER; listed as Homo sapiens)",
    "logFC.mWT.over.Luc": 4.13
  },
  {
    "substance": "COL1A2_866 (LLGAPGILGLPGSR; listed as Homo sapiens)",
    "logFC.mWT.over.Luc": 2.76
  },
  {
    "substance": "BMPER_43 (LTGSVAKCENEG; listed as Homo sapiens)",
    "logFC.mWT.over.Luc": 2.37
  },
  {
    "substance": "ADNP2_375 (SQPVGPVNK; listed as Homo sapiens)",
    "logFC.mWT.over.Luc": 5.35
  }
]

Origin of the recorded values: patent US20240368668A1
